test: reversal of MRP1-mediated doxorubicin resistance, pilot screen, H69AR cells, doxorubicin co-treatment (AID 601); conditions: H69AR cells + 2 uM doxorubicin, CellTiter-Glo, 72 h; measured here: viability with 2 uM doxorubicin; at 10 µM; stronger effect = lower value
The entries below come with measured viability values attached.
Report only the number, with the unit % understood.

Examples with their reported viability follow.
molecule: COc1ccccc1C1N(c2ccc(F)cc2)C(=O)C2CCCN21 (stereo not given)
measurementType: viability
number: 90.1

molecule: CC12C(=O)N(CCC(=O)O)C(=O)C1C1C=CC2C1 (stereo not given)
measurementType: viability
number: 91

molecule: Cc1ccc(F)cc1NC(=O)C1CCCN(c2ncccn2)C1 (stereo not given)
measurementType: viability
number: 90.6

**Query** Would you mind telling me what viability value was observed for CCN(C(=O)CN1CCN(c2ccccc2OC)CC1)c1c(N)n(Cc2ccccc2)c(=O)[nH]c1=O ?
**Result** 90.8

**Query** What value of viability has been reported for the following molecule? Cc1csc(NC(=O)c2ccoc2C)n1
**Result** 91.8

====

assay: reversal of MRP1-mediated doxorubicin resistance, pilot screen, H69AR cells, doxorubicin co-treatment (AID 601); settings: H69AR cells, CellTiter-Glo, 72 h; compound alone cytotoxicity; at 10 µM
measurementType: viability
Lab note: write values as number then unit, every time.

molecule: Cc1ccc(CS(=O)(=O)Cc2ccc(C(=O)NCc3ccccn3)o2)cc1
result: 99.4%

molecule: COc1ccccc1OCc1ccc(C(=O)N2CCN(C(=O)c3ccco3)CC2)cc1
result: 99.2%

molecule: Cc1ccc2nc(-c3ccc(S(=O)(=O)N4CCOCC4)cc3)cn2c1
result: 105%

molecule: CCN(CC)CCCN1C(=O)C(O)=C(C(C)=O)C1c1cccc(OC)c1 (stereo unspecified)
result: 93%

molecule: O=C(NCC(=O)N(Cc1cccs1)C(C(=O)NC1CCCC1)c1ccncc1)c1ccco1 (stereo unspecified)
result: 85.7%

**Query** Give the measured viability of COc1ccc(Br)cc1S(=O)(=O)N1CCOCC1 .
**Result** 87.2%

**Query** So what does the record say about viability for Clc1cccc(-c2nnc3sc(-c4ccccc4)nn23)c1 ?
**Result** 89.5%

**Query** Look at this molecule and give its reported viability. Nc1c(C(=O)NCCN2CCOCC2)c2nc3ccccc3nc2n1-c1ccc2c(c1)OCO2
**Result** 18.1%

**Query** Any idea what viability was measured for COc1cccc(Cn2c(-c3nonc3N)nc3ccccc32)c1 ?
**Result** 16%

**Query** I am curious: what viability value has been reported for Cc1ccc2nc(C(F)(F)F)c(C#N)c(N)c2c1 ?
**Result** 71.3%

**Query** Need viability of CC(=O)N1CCc2cc(S(=O)(=O)CCC(=O)N3CCN(C(=O)c4ccco4)CC3)ccc21 , thanks.
**Result** 98.2%

**Query** # query: viability of entry COc1ccc(C(=O)CSc2nnc(-c3ccc(C)cc3)o2)cc1
**Result** 86.4%

**Query** Suppose we examine the molecule Cc1ccc(S(=O)(=O)NCCNC(=O)C2CCCNC2=O)cc1 (stereo unspecified) ; what viability value has been reported?
**Result** 105%

====

viability for assorted compounds
test: reversal of MRP1-mediated doxorubicin resistance, pilot screen, H69AR cells, doxorubicin co-treatment (AID 601); settings: H69AR cells, CellTiter-Glo, 72 h; compound alone cytotoxicity; at 10 µM
Write down the numeric answer in % and omit the unit.

Solved cases (2 shown):
compound: c1ccc2c(SCc3cn4cccnc4n3)ncnc2c1
viability, %: 88.4
--
compound: O=C(CN1CCN(c2ccc(F)cc2)CC1)OCc1ccccc1
viability, %: 92.6

**Query** Quick one: viability of Cc1ccc(-c2nnc(SCC(=O)N3CC(C)CC(C)C3)o2)cc1C (configuration not stated) ?
**Result** 90.7

**Query** Would you kindly share the measured viability for Cc1nnc(SCc2ccccc2F)n1NCc1cccs1 ?
**Result** 89

**Query** # get_value(readout='viability', item= COc1cc2c(cc1OC)C(/C(C#N)=N\O)=NC(C)(C)C2 )
**Result** 100

**Query** Given the compound CCOC(=O)c1ccc(N=Cc2nc(-c3ccccc3)oc2OC(C)=O)cc1 , what is its reported viability?
**Result** 17.9

**Query** What value of viability has been reported for the following compound? O=C(c1ccccc1-c1nc(-c2ccccc2)no1)N1CCCC1
**Result** 90.9

**Query** Look up viability: N#C[C@@H]1[C@@H]2C(=O)N(c3ccc4c(c3)OCCO4)C(=O)[C@@H]2C2c3ccccc3C=CN21 (some centres not stated)
**Result** 92.8

**Query** I would be grateful if you could share the reported viability for Cc1cccc2c(=O)oc(-c3ccc4c(c3)C(=O)N(CC3CCCO3)C4=O)nc12 (configuration not stated) .
**Result** 98.7

**Query** Look up viability for this compound: CCCCc1cc(=O)oc2c(CN3CCCC3)c(O)c(Cl)cc12
**Result** 96.6

**Query** May I ask what viability has been recorded for O=C(CN1CCC(c2nc3ccccc3s2)CC1)NCc1cccs1 ?
**Result** 85.3

**Query** // viability lookup, key: CN(CC(=O)Nc1ccncc1)S(=O)(=O)c1ccccc1
**Result** 95.8

**Query** Look at this compound and give its reported viability. CCN1CCCC1CNCc1ccc(Cl)cc1Cl (configuration not stated)
**Result** 104

**Query** So what's the measured viability for this one? COc1ccccc1Nc1nc(N)nc(-c2cc3ccccc3o2)n1
**Result** 49.3

**Query** Given the compound CC(=O)NCc1ccc(C(=O)CSc2nnc(-c3ccncc3)n2Cc2ccccc2)o1 , what is its reported viability?
**Result** 97.1

**Query** Name the recorded viability for O=C(Nc1ccccc1C(=O)N1CCOCC1)C1CCC(=O)N1C1CCCC1 (configuration not stated) .
**Result** 95

**Query** For Cc1cccc(NC(=O)C2CCCN(C(=O)Nc3ccccc3)C2)c1C (configuration not stated) , what is its reported viability?
**Result** 96.2

**Query** For the compound shown here, CCOC(=O)CSc1nnc(NCC(=O)OC(C)C)c(=O)[nH]1 , give the reported viability.
**Result** 93.3

**Query** So what does the record say about viability for Cn1c(=O)[nH]c(=O)c2c1nc(N1CCc3ccccc3C1)n2CCSc1nc2ccccc2s1 ?
**Result** 75.2

**Query** Name the reported viability value associated with the compound COc1cc(OC)cc(-c2nc(N)n[nH]2)c1
**Result** 103

**Query** Field request: viability | item: CC(=O)NCCC(=O)Nc1ccc(C)c(F)c1
**Result** 91.4

**Query** Suppose we examine the compound COc1ccccc1NC(=O)N1CCN(c2ccccc2F)CC1 ; what viability value has been reported?
**Result** 93.8

====

assay: SK-BR-3 cell growth inhibitors, pilot screen, 24 h, human (AID 572); conditions: SK-BR-3 viability, CellTiter-Glo luminescence, at 10 µM, stronger effect = lower value;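 further: compound exposure lasted between 18 and 24 h rather than exactly 24 h; 100% = carrier-treated control wells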
The following compounds are listed with their measured viability values.
The figure you give is taken to be in %; do not add the unit.

itemSmiles: COc1ccc(OC)c(NC(=O)CCNS(=O)(=O)c2cccs2)c1
viability [%]: 95

itemSmiles: Cc1cc(Br)c(S(=O)(=O)n2nnc3ccccc32)cc1C
viability [%]: 107

itemSmiles: CC(=O)O[C@@]12CO[C@@H]1C[C@H](O)[C@@]1(C)C(=O)[C@H](O)C3=C(C)[C@@H](OC(=O)[C@H](O)[C@@H](NC(=O)OC(C)(C)C)c4ccccc4)C[C@](O)([C@@H](OC(=O)c4ccccc4)[C@H]21)C3(C)C
viability [%]: 130

**Query** Given CCN(CC)CCCNc1oc(-c2cccc(Cl)c2)nc1C#N , state its recorded viability.
**Result** 113

====

# inhibition per record follows
assay: 384-well plate pilot, post-Golgi transport modulator project, inhibition of yeast transport mutant growth (AID 636); details: absorbance 615 nm, about 18 h, stronger effect = higher value
Please reply with the bare figure in % and do not write the unit itself.

compound: c1cc(C(c2nnnn2C2CCCC2)N2CCOCC2)ccn1 (stereo not drawn)
number: -8.22

compound: O=C(NC1(C(F)(F)F)C(=O)Nc2c1c(=O)[nH]c(=O)n2Cc1ccco1)C1CCCCC1 (stereo not drawn)
number: -6.49

**Query** Fill in: inhibition of COc1cc(NC(=O)c2ccc(COCC(F)(F)F)o2)cc(OC)c1OC is ___
**Result** -1.45

====

experiment: HUVEC growth inhibition – cell-based, human, primary screen (AID 575); settings: HUVEC proliferation, CellTiter-Glo luminescence, 72 h; at 10 µM; stronger effect = lower value;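 further: 100% = median of untreated cell wells with 0.1% DMSO on each plate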
measurementType: viability (%)
Record the value in %, omitting the unit from your answer.

Worked cases, viability given:
compound: CC(NC(=O)c1ccco1)c1ccc2c(c1)OCCO2 (stereo not drawn)
viability, %: 90.7
//
compound: Nc1nc(N)c2nc(-c3ccccc3)c(N)nc2n1
viability, %: 90.5

**Query** Which viability is reported for this compound? COc1ccc(NC(=O)CSc2nnc(-c3ccncc3)n2CC2CCCO2)c(OC)c1 (stereo not drawn)
**Result** 89.2

**Query** I'd like to know its viability. The compound in question is O=C(O)CCc1ccc(-c2ccccc2)n1CC(=O)O
**Result** 88.9

**Query** What does the data say about its viability? Entry: COc1cc(NC2c3ccccc3C(=O)N2c2ccc(C)cn2)cc(OC)c1OC (stereo not drawn)
**Result** 85.5

**Query** Look up viability for this compound: CN(C)CCCN1c2ccccc2Sc2ccccc21
**Result** 74.2

**Query** Can you look up the measured viability of N#Cc1c(SCC(=O)N2CCOCC2)nsc1SCC(=O)N1CCOCC1 for me?
**Result** 97.7

**Query** # viability lookup, item C=CCn1c(SCC(=O)Nc2ccc3c(c2)OCO3)nc2ccccc2c1=O
**Result** 83.9
